Kindly supply the reported growth inhibition values for the records listed here.
- test_summary: NCI Yeast Anticancer Drug Screen. Data for the cln2 rad14 strain (AID 165);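 also: 0% = growth equal to vehicle treated cultures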
- condition_summary: S. cerevisiae cln2 rad14 strain, at 5.0 µM (retest, dose inferred, filed as 0.5), hits give high values
This is part of a sample that, as a whole, favours compounds with a hit. Of some 79,000 tested, about 15% had one in any assay. Active and inactive are the calls of the source. Rule as the data show it: active = growth inhibition above about 70%; inactive = the rest.

Q. Name the recorded growth inhibition of the compound listed here: "O=c1ccc2ccccc2c2ccccc12"
A. 5% (inactive)

Q. Hello, please tell me recorded growth inhibition for this one: "COc1cc(O)c2c(c1O)C(=O)c1cc(C)ncc1C2=O"
A. 1% (inactive)

Q. Please look at this compound and report its growth inhibition: CCOC(=O)C1N=[N+](c2ccccc2)C(=O)/C1=C\n1c(=S)[nH]c2ccc([N+](=O)[O-])cc21 (configuration not stated)
A. 53% (inactive)

Q. Return reported growth inhibition. Input compound: CC(=O)OC1CC2C(C)(C)C(=O)C=C[C@]2(C)C2CCC3(C)C(=CCC3[C@H](CO)C[C@H](O)C(=O)C(C)(C)O)[C@]12C (some centres not stated)
A. 32% (inactive)

Q. Name the recorded growth inhibition of the compound listed here: "O=[N+]([O-])/C=C/c1cc(Cl)c(/C=C/[N+](=O)[O-])cc1Cl"
A. 22% (inactive)

Q. Kindly indicate its recorded growth inhibition. Item: "COc1cc(O)c(O)c(C(C)(C)C)c1"
A. -14% (inactive)

Q. Return reported growth inhibition. Input compound: COC(=O)CC1(O)C(/C=C/c2ccccc2)C(C(=O)OC)C(=O)C(C(=O)OC)C1C(=O)OC (configuration not stated)
A. -18% (inactive)

Q. Complete the entry with growth inhibition for "CSc1nc(C)c(CCOC(C)=O)c(N=P(c2ccccc2)(c2ccccc2)c2ccccc2)n1"
A. 3% (inactive)

Q. Determine from records and report growth inhibition for Cc1ccc(NC(c2ccccc2)c2ccc3cccnc3c2O)cc1 (configuration not stated)
A. 48% (inactive)

Q. Please look at this compound and report its growth inhibition: "CC[N+](CC)(CC)c1ccccc1"
A. 20% (inactive)

Q. Respond only with growth inhibition recorded for "O=C1C=C(Cl)C(=O)N1c1cccc(Cl)c1"
A. 3% (inactive)

Q. Name the recorded growth inhibition of the item "O=C1c2ccccc2C(=O)N1CCCC(=O)n1cc(F)c(=O)[nH]c1=O" in your answer.
A. 30% (inactive)

Q. Annotate the compound Cc1ccc(NC(=O)/C(CC2N=c3c(ccc4c(O)c5ccccc5c(O)c34)=NC2O)=N/NC(C)(C)C)cc1 (configuration not stated) with its measured growth inhibition.
A. -25% (inactive)

Q. Answer with reported growth inhibition of CC(=O)OCC1OC2OC(=O)NC2C(OC(C)=O)C1OC(C)=O (configuration not stated)
A. -21% (inactive)

Q. Please give measured growth inhibition of the following entry: "O=C(/C=C/c1cc(Cl)cc(Cl)c1O)c1cccc(O)c1"
A. 29% (inactive)

Q. Query growth inhibition for "COc1ccc(C/C=N/Nc2ccc([N+](=O)[O-])cc2)cc1OC"
A. -3% (inactive)

Q. Give the reported growth inhibition for this compound. "S=c1sc2c(s1)SCCS2"
A. -14% (inactive)

Q. Supply growth inhibition value. Item: "CC(C)OC(=O)c1ccc(CCc2cc(O)c(Br)cc2O)cc1"
A. 1% (inactive)

Q. Specify growth inhibition for "CCOC1(c2cccc([N+](=O)[O-])c2)c2ccccc2Oc2ccccc21" and stop.
A. 12% (inactive)

Q. Using the record for "OCC(CO)C(c1cccc2ccccc12)c1cccc2ccccc12" , state its measured growth inhibition.
A. 2% (inactive)

Q. Give reported growth inhibition value for C[C@]12CC[C@H](O)CC1=CC[C@@H]1C2CC[C@]2(C)C(=O)NC(=O)CC12 (some centres not stated)
A. 1% (inactive)

Q. Specify measured growth inhibition for O=C1C=C(c2ccccc2)OC1(c1ccccc1)N1CCOCC1 (configuration not stated) .
A. 2% (inactive)

---

- test_summary: NCI Yeast Anticancer Drug Screen. Data for the cln2 rad14 strain (AID 165);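 also: 0% = growth equal to vehicle treated cultures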
- condition_summary: S. cerevisiae cln2 rad14 strain, at 5.0 µM (retest, dose inferred, filed as 0.5), hits give high values
Compounds without any hit were thinned out: in the full panel of roughly 79,000, 15% have a hit.
I'd be grateful if you could share measured growth inhibition for these entries.
# value in %; strip the unit string

Q. State, in one line, measured growth inhibition of "CCOC1=C/C(=N\Nc2ccc([N+](=O)[O-])cc2)CCC1"
A. 5

Q. Using known records, supply growth inhibition for "CCc1c(Cl)c(C)cc(O)c1Cl"
A. 32

Q. Entry "Cc1cccc(/C=N/NC(=S)N2CCCC2)n1" needs its growth inhibition filled in; supply it.
A. 2

Q. Return reported growth inhibition. Input compound: "CCCCc1nnc(NS(=O)(=O)c2ccc(C)cc2)s1"
A. 35

Q. Recall and state the measured growth inhibition for "CCC(C)(C)c1ccc(Oc2cccc(C(=O)O)c2)cc1" .
A. -27

Q. Respond only with growth inhibition recorded for "CCCC/C=C/C(C)(C(=O)OCC)C(=O)OCC"
A. -6

Q. Let me know recorded growth inhibition for "Cc1nc2ccc(N=NN(C)C)cc2[nH]1" , thanks.
A. 8

Q. State, in one line, measured growth inhibition of "COc1ccc([N+](=O)[O-])c2c(NCCCN(C)C)c3ccccc3nc12"
A. 42

Q. Determine its reported growth inhibition: "O=C(/C=C(/c1ccccc1)N1CCCCC1)c1ccccc1"
A. 14

Q. Dear colleague, please send me the reported growth inhibition for "Cc1cc2cc3cc(C)c(N)cc3nc2cc1N" when you can.
A. 34

Q. Hello, please tell me recorded growth inhibition for this one: "O=P(NC1CCCCC1)(OCc1ccccc1)OCc1ccccc1"
A. 15

Q. Answer with reported growth inhibition of "Cc1cc(C(C)(C)C)c(OCCCN2CCOCC2)c(C(C)(C)C)c1"
A. -21

Q. For the compound "CC(=O)ON=C1C=CC(=C(C#N)c2ccc(Cl)cc2)C=C1" , give its reported growth inhibition.
A. 7

Q. Let me know recorded growth inhibition for CCCC(O)C1CC(C(C)C)CCC1C (configuration not stated) , thanks.
A. 4

Q. Give reported growth inhibition value for "CCOc1c(N=Nc2ccccc2OC)c(C)nn1C(=S)S"
A. -45

Q. Kindly indicate its recorded growth inhibition. Item: CC1OC(O[C@H]2/C=C/C=C/C=C/C=C/C=C/C=C/C=C/[C@H](C)[C@@H](O)[C@@H](C)[C@H](C)OC(=O)C[C@H](O)C[C@H](O)CC[C@@H](O)[C@H](O)C[C@H](O)C[C@]3(O)C[C@H](O)[C@@H](C(=O)O)[C@H](C2)O3)C(O)C(N)C1O (some centres not stated)
A. 50

Q. For CC(NCCN(C)C)C1CCC2C3CCc4cc(O)ccc4C3CCC12C (configuration not stated) , write its growth inhibition.
A. 35

Q. Report growth inhibition, nothing else, for this compound: "Cc1ccc(N=Nc2ccc(O)c(=O)cc2)cc1"
A. 13

Q. Please look at this compound and report its growth inhibition: "Cc1ccc(NCCNCCO)c2c(=O)c3cc(O)ccc3sc12"
A. 17

Q. Fill in growth inhibition for record "NC1CCCCC1N.Nc1c(N=Nc2ccc(-c3ccc(N=Nc4cc(S(=O)(=O)[O-])c5ccccc5c4N)cc3)cc2)cc(S(=O)(=O)[O-])c2ccccc12.[OH3+].[OH3+].[Pt+4]"
A. 66

Q. Specify reported growth inhibition for the compound shown: "O=[N+]([O-])c1cccc2nc3ccccc3c(NCCC[N+]3([O-])CCCCC3)c12"
A. 95

Q. Give reported growth inhibition value for "O=c1c2ccccc2nc(-c2ccccc2)n1O"
A. -11

---

- test_summary: NCI Yeast Anticancer Drug Screen. Data for the rad50EPP+ strain (AID 151);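 also: 0% = growth of vehicle-treated control cultures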
- condition_summary: S. cerevisiae rad50 mutant strain, at 33.0 µM, hits give high values
The panel holds about 79,000 compounds, 15% with a hit somewhere; the sample as a whole holds those more often.
So basically every entry gets a class from its growth inhibition, ranges being lower range: < 10%; middle range: ≥ 10% and < 50%; upper range: ≥ 50%

Q. # classify by growth inhibition band: "CCOC(=N)c1ccc(O)c(OC)c1"
A. lower range

Q. Which class is correct for the following molecule? "COc1ccc2[nH]cc([C@@H]3C4CCC(C4)[C@H]3NCc3cccc(CN[C@H]4C5CCC(C5)[C@@H]4c4c[nH]c5ccc(OC)cc45)c3)c2c1"
A. lower range

Q. Exam item: assign "O=C1NC(SSC2=NNC3(C(=O)N2)c2ccccc2-c2ccccc23)=NNC12c1ccccc1-c1ccccc12" to the correct category.
A. middle range

Q. Where would "COc1ccc(C/C=N/Nc2ccc([N+](=O)[O-])cc2)cc1OC" land among the classes by reported growth inhibition?
A. middle range

Q. Bin? "CNC(=O)OCc1c(COC(=O)NC)c(-c2ccc(Cl)c(Cl)c2)n2c1SCC2"
A. lower range

Q. Sort "Oc1cccc2cc(Cl)cnc12" into one of the categories.
A. upper range

Q. Please classify: CC(O)=NC(Cc1ccc2ccccc2c1)C(O)=NC(Cc1ccc(Cl)cc1)C(O)=NC(Cc1c[nH]c2ccccc12)C(O)=NC(CO)C(O)=NC(Cc1ccc(O)cc1)C(O)=NC(CCCN=C(N)N)C(O)=NC(CC(C)C)C(O)=NC(CCCN=C(N)N)C(=O)N1CCCC1C(O)=NC(C)C(=N)O (stereo not given)
A. middle range

Q. Textbook exercise: identify the category of the molecule given here, "CC1=NOC(=O)/C1=C/c1ccc2c(c1)OCO2" , according to its measured value.
A. middle range

Q. Band assignment needed for CC1SC2(C(=O)Nc3ccc(Cl)cc32)N(c2ccc(Cl)cc2)C1=O (stereo not given) please.
A. lower range

Q. Assign a category based on measured growth inhibition for "O=C(O)c1cc2ccc(Cl)cc2c(O)c1C1=CCCCC1" and give only the class name.
A. middle range

Q. In plain terms, what class is "OCC(CO)C(c1cccc2ccccc12)c1cccc2ccccc12" ?
A. middle range

Q. Which class is correct for the following molecule? "O=[N+]([O-])c1cc(Cl)cnc1Br"
A. upper range

Q. Any idea which band "COc1ccc(C(=O)C(CN(C)C)CN(C)C)cc1" is in?
A. middle range

Q. Category of CC(=O)OC1CC2C(C)(C)C(=O)C=C[C@]2(C)C2CCC3(C)C(=CCC3[C@H](CO)C[C@H](O)C(=O)C(C)(C)O)[C@]12C (stereo not given in full) :
A. lower range

Q. Into which category would you place COc1ccc(C(NCCNC(c2ccc(OC)c(OC)c2)c2cc3c(cc2O)OCO3)c2cc3c(cc2O)OCO3)cc1OC (stereo not given) ?
A. upper range

Q. // return the class label for O=C(NNc1ccccc1)C(O)C(O)C(O)C(O)C(O)CO (stereo not given)
A. upper range

Q. Exam item: assign "O=[N+]([O-])c1cc[n+]([O-])cc1" to the correct category.
A. middle range

Q. Would you mind sorting CCC(C)OC(=O)Nc1ccc(C)c(NC(=O)OC(C)CC)c1 (stereo not given) into the appropriate category?
A. middle range

Q. Entry "c1ccc2c(c1)sc1c3cnccc3ccc21" belongs to which category?
A. upper range
